Documented pIC50 across a set of compounds
- MEASUREMENT TARGET: Beta-secretase 1 (Homo sapiens, UniProt P56817)
- Sequence (P56817 whole entry): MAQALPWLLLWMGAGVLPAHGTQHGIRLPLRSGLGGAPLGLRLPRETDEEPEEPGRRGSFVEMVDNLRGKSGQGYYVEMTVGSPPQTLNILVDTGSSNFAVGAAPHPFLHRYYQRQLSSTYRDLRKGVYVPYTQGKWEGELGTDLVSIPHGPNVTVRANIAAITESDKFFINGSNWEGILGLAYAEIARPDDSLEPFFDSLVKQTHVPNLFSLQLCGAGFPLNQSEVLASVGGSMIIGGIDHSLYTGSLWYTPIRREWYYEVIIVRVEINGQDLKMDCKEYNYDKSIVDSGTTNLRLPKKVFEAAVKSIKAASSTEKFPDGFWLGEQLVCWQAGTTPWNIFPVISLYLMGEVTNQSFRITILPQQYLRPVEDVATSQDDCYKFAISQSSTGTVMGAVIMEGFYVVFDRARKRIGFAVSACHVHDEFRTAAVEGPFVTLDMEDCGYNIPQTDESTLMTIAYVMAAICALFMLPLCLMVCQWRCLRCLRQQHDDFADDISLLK
- MEASUREMENT DESCRIPTION: Inhibition of human beta-secretase
pIC50: −log10 of the molar value. Non-standard residues stand in square brackets, D forms with d. Residues, ends and D or L forms follow the SMILES beside them. Sta = CC(C)C[C@H](N)[C@@H](O)CC(=O)O

Sample records with pIC50:
{"COMPOUND": "CC(C)C[C@H](NC(=O)[C@@H](N)CC(N)=O)[C@@H](O)CC(=O)N[C@H](C(=O)N[C@@H](C)C(=O)N[C@@H](CCC(=O)O)C(=O)N[C@@H](Cc1ccccc1)C(=O)O)C(C)C (H-N[Sta]VAEF-OH)", "pIC50": "< 4.04"}
{"COMPOUND": "CSCC[C@H](NC(=O)[C@H](CC(C)C)NC(C)=O)C(=O)N[C@@H](CC(C)C)[C@@H](O)CC(=O)N[C@@H](C(=O)NCc1cccc(C(=O)O)c1)C(C)C", "pIC50": "< 4.04"}

Query: What does the record list as pIC50 for CC(=O)N[C@@H](CC(C)C)C(=O)N[C@H](C)C(=O)N[C@@H](CC(C)C)[C@@H](O)CC(=O)N[C@H](C(=O)NCc1cccc(C(=O)O)c1)C(C)C ?
Response: < 4.04
